# TARGET_DESC: Serum samples collected at week 16 from patients immunized with UBI AD vaccine (UB-311)
# ASSAY_PROCEDURE: comp. ELISA, serum P202
ENDPOINT_NAME: IC50-based peak height
// return just the number, without any unit appended

>>> quantitative_result("DSGYEVHHQK [Aβ7-16 or APP 770 (D678-K687)]")
0
>>> quantitative_result("HHQKLVFFAE [Aβ13-22 or APP 770 (H684-E693)]")
0
>>> quantitative_result("EVHHQKLVFF [Aβ11-20 or APP 770 (E682-F691)]")
0

Quick check: IC50-based peak height of SGYEVHHQKL [Aβ8-17 or APP 770 (S679-L688)] ? 0

I'd like to know its IC50-based peak height. The binder in question is YEVHHQKLVF [Aβ10-19 or APP 770 (Y681-F690)] 0

Need IC50-based peak height, item EEISEVKMDA [Aβ-8-2 or APP 770 (E664-A673)] 0

Reported IC50-based peak height for EFRHDSGYEV [Aβ3-12 or APP 770 (E674-V683)] : what is it? 0

Which measured IC50-based peak height value corresponds to EISEVKMDAE [Aβ-7-3 or APP 770 (E665-E674)] ? 0
